Molecular target: PTP-1B (Homo sapiens)
Construct: PTP-1B (purified, 1 mg/mL) as a 1:250 dilution
Sequence (P18031 1-321 limits assumed): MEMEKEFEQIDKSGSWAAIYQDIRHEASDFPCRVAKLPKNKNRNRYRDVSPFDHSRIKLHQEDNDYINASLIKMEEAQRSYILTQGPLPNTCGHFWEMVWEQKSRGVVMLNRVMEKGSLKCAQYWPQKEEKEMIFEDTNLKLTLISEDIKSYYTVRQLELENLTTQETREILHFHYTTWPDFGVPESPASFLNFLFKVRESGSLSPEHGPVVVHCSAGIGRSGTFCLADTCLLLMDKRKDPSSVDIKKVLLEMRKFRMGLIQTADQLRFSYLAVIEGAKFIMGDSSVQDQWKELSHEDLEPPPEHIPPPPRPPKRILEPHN
Experiment: pNPP tyrosine phosphatase inhibition assay, PTP-1B
Assay type: biochemical
Details: pNPP assay, PTP-1B; read-out: Activity Class (IC50 ranges)
pIC50: −log10 of the molar value. Counter-ions that a name gives are not always drawn.
The entries below are paired with their reported pIC50.

Completed entries (count: 3):
{"molecule": "O=P(O)(O)C(F)(F)c1ccc(CN(Cc2ccc(-c3cccc(-c4nn[nH]n4)c3)cc2)S(=O)(=O)c2ccc3ccccc3c2)cc1Cl", "metric-name": "pIC50", "val": "> 7.00"}
{"molecule": "O=P(O)(O)C(F)(F)c1ccc(CN(Cc2ccc(C(F)(F)P(=O)(O)O)cc2)S(=O)(=O)c2cccc(Cl)c2)cc1", "metric-name": "pIC50", "val": "6.30 to 6.60"}
{"molecule": "COc1cccc(S(=O)(=O)N(Cc2ccc(C(F)(F)P(=O)(O)O)cc2)Cc2ccc(C(F)(F)P(=O)(O)O)cc2)c1", "metric-name": "pIC50", "val": "6.30 to 6.60"}

Input: # lookup: pIC50 of COc1ccccc1S(=O)(=O)N(Cc1ccc(-c2ccc(CO)c(C(=O)O)c2)cc1)Cc1ccc(C(F)(F)P(=O)(O)O)c(Cl)c1 [Compound 200, trisodium salt]
Output: 6.60 to 7.00

Input: # lookup: pIC50 of "O=P(O)(O)C(F)(F)c1ccc(CN(Cc2ccc(C(F)(F)P(=O)(O)O)cc2)S(=O)(=O)c2ccccc2F)cc1"
Output: 6.30 to 6.60

----------
The entries below are paired with their reported IC50.
Molecular target: PTP-1B (Homo sapiens)
Construct: PTP-1B (purified, 1 mg/mL) as a 1:250 dilution
Sequence (P18031 1-321 limits assumed): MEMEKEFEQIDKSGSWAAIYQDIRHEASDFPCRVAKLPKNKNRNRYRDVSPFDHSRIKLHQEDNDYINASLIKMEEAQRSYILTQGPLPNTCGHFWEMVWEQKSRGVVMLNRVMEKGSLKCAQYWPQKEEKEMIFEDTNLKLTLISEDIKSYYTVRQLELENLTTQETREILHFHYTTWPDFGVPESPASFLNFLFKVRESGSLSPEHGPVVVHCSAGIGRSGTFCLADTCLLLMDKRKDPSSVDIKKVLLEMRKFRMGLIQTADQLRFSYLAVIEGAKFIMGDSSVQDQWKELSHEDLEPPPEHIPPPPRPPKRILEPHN
Test: pNPP tyrosine phosphatase inhibition assay, PTP-1B
Type: biochemical
Conditions: pNPP assay, PTP-1B; read-out: Activity Class (IC50 ranges)

{"molecule": "COc1ccc(OC)c(S(=O)(=O)N(Cc2ccc(C(=O)C(=O)O)cc2)Cc2ccc(S(C)(=O)=O)cc2)c1 [Compound 113]", "IC50": "> 25000 nM"}

Input: # lookup: IC50 of CN(Cc1ccc(C(F)(F)P(=O)(O)O)cc1)Cc1ccc(C(F)(F)P(=O)(O)O)cc1 [Compound 15]
Output: > 25000 nM

Input: # lookup: IC50 of COc1ccccc1S(=O)(=O)N(Cc1ccc(-c2cccc(C(=O)O)c2)cc1)Cc1ccc(C(F)(F)P(=O)(O)O)c(Cl)c1 [Compound 149]
Output: < 99 nM

Input: # lookup: IC50 of COc1ccccc1S(=O)(=O)N(Cc1ccc(-c2ccc(Cc3nn[nH]n3)cc2)cc1)Cc1ccc(C(F)(F)P(=O)(O)O)c(Cl)c1 [Compound 153]
Output: 100 to 249 nM

Data provenance is patent US20060135773A1.
